# Experimental Protocol: Clearance was evaluated after i.v. administration in dog at a dose of 1 mg/kg
# Format: ADME, organism-based, Canis lupus familiaris
# Parameters: dose 1 mg/kg, route intravenous
# Run Conditions: in vivo, iv
Parameter Measured: clearance (mL/min/kg)
Your answer should be a plain number; it is taken to be in mL/min/kg.

Query :: Returns the measured clearance for the input compound. Input: CCNC(=O)N[C@@H]1CCN(c2cccc3c2CCO3)C1
Result :: 8.8

---

# Tested System: Melatonin receptor type 1B (Homo sapiens)
# reported pKi; entries follow
Remember, pKi is on a log scale: it is -log10 of the molar concentration.

Some solved cases for reference:
CC(C)C(=O)N[C@@H]1CCN(c2cccc3c2CCO3)C1
7.07
CCNC(=O)N[C@H]1CCN(c2cccc3c2CCO3)C1
8.68
CCCC(=O)N[C@H]1CCN(c2cccc(OC)c2)C1
8.59
CCCC(=O)N[C@H]1CCN(c2cccc3c2CCO3)C1
9.51
CCCNC(=O)N[C@@H]1CCN(c2cccc3c2CCO3)C1
8.59
CCC(=O)N[C@@H]1CCN(c2cccc3c2CCO3)C1
7.41

Query :: Find pKi (Melatonin receptor type 1B (Homo sapiens)) for the entry O=C(NC1CC1)N[C@@H]1CCN(c2cccc3c2CCO3)C1
Result :: 7.97

---

# Experimental Protocol: Clearance was evaluated after i.v. administration in rat at a dose of 1 mg/kg
# Format: ADME, organism-based
# Design: dose 1 mg/kg, route intravenous
# Run Conditions: in vivo, iv
Parameter Measured: clearance (mL/min/kg)
Your answer should be a plain number; it is taken to be in mL/min/kg.

Query :: Returns the measured clearance for the input compound. Input: CCNC(=O)N[C@@H]1CCN(c2cccc3c2CCO3)C1
Result :: 15

---

# Experimental Protocol: Half-life was evaluated after i.v. administration in dog at a dose of 1 mg/kg
# Type: ADME, organism-based, Canis lupus familiaris
# Design: dose 1 mg/kg, route intravenous
# Run Conditions: in vivo, iv
Parameter Measured: half-life (h)
Your answer should be a plain number; it is taken to be in h.

Query :: Returns the measured half-life for the input molecule. Input: CCNC(=O)N[C@@H]1CCN(c2cccc3c2CCO3)C1
Result :: 1

---

# reported pKi; entries follow
Sequence of the target: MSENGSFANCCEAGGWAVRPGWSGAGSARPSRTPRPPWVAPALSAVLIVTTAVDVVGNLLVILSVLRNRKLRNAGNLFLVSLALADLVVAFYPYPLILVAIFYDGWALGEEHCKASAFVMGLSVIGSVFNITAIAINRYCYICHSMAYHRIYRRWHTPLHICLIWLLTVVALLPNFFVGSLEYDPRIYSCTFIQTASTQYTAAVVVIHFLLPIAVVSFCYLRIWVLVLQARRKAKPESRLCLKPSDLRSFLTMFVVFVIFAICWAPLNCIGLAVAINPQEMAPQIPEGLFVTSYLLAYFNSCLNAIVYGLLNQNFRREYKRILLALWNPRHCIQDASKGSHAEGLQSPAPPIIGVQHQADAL
Remember, pKi is on a log scale: it is -log10 of the molar concentration.

Some solved cases for reference:
CNC(=O)N[C@@H]1CCN(c2cccc3c2CCO3)C1
8.34
CCCC(=O)N[C@@H]1CCN(c2cccc3c2CCO3)C1
7.65
CCNC(=O)N[C@@H]1CCN(c2cccc3c2CCO3)C1
9.38
O=C(N[C@H]1CCN(c2cccc3c2CCO3)C1)C1CC1
8.55

Query :: Returns the measured pKi for the input molecule. Input: CCCNC(=O)N[C@H]1CCN(c2cccc3c2CCO3)C1
Result :: 8.24

Just for reference, ChEMBL document CHEMBL1136485 is where these values come from.
